Give measured z-score of subpopulation abundance for each item. Keep answers brief.
System: Saccharomyces cerevisiae BY4741 SeMeCo community
Procedure summary: z-score of subpopulation abundance vs DMSO median, subpopulation auxotrophic for HU; higher = larger share of this subpopulation than in DMSO controls
Protocol conditions: 10 µM; 24 h; SM minimal medium; subpopulation (auxotrophy): HU
Structures can show the parent of a compound that is named as a salt.
Give bare numbers.

Field: example entries. Status: answers known.
{"Compound": "Nc1ccc(S(=O)(=O)Nc2ncccn2)cc1 [Sodium sulfadiazine]", "Recorded metric": "z-score of subpopulation abundance", "Quantitative result": -0.58}
{"Compound": "C[C@H]1c2cccc(O)c2C(O)=C2C(=O)[C@]3(O)C(O)=C(C(N)=O)C(=O)[C@@H](N(C)C)[C@@H]3[C@@H](O)[C@@H]21 [Doxycycline monohydrate]", "Recorded metric": "z-score of subpopulation abundance", "Quantitative result": -1.42}
{"Compound": "Cn1c(=O)c2c(ncn2CC(O)CO)n(C)c1=O (configuration not stated)", "Recorded metric": "z-score of subpopulation abundance", "Quantitative result": -0.83}

// batch mode: one z-score of subpopulation abundance value per listed entry
1. Cc1cc(-n2c(=O)[nH]c(=O)n(C)c2=O)ccc1Oc1ccc(SC(F)(F)F)cc1
2. CC(=O)NO [Acetohydroxamic acid]
3. CC(C)(O/N=C(\C(=O)N[C@@H]1C(=O)N2C(C(=O)[O-])=C(C[n+]3ccccc3)CS[C@H]12)c1csc(N)n1)C(=O)O
4. CN1[C@@H](CC(=O)c2ccccc2)CCC[C@H]1C[C@H](O)c1ccccc1 [Lobeline hydrochloride]
5. NC(=O)N1c2ccccc2CC(=O)c2ccccc21 [Oxcarbazepine]
6. CN1CCN2c3ncccc3Cc3ccccc3C2C1 (configuration not stated)
7. CC1(C)S[C@@H]2[C@H](NC(=O)[C@H](N)c3ccc(O)cc3)C(=O)N2[C@H]1C(=O)O [Amoxicillin Sodium]
8. CCCCCCCCCCCCCCCCCCOP(=O)([O-])OC1CC[N+](C)(C)CC1

A)
0.29
-0.11
0.43
-0.75
0.16
0.29
-0.71
8.89

Q) Can you look up the measured z-score of subpopulation abundance of COC(=O)Nc1nc2cc(C(=O)c3ccccc3)ccc2[nH]1 for me?
A) 1.39

----------
Test system: Saccharomyces cerevisiae BY4741 SeMeCo community
Procedure summary: z-score of subpopulation abundance vs DMSO median, subpopulation auxotrophic for HLU; higher = larger share of this subpopulation than in DMSO controls
Protocol conditions: 10 µM; 24 h; SM minimal medium; subpopulation (auxotrophy): HLU
Where a name gives a salt, the structure may show the parent alone.
Parameter threshold = -0.1. Response is MET when z-score of subpopulation abundance meets or exceeds it, else NOT MET.

{"Compound": "COc1ccc2c3c1O[C@H]1C[C@@H](O)C=C[C@@]31CCN(C)C2 [Galanthamine HBr]", "Discrete label": "MET"}

Q) Hello, I need to know if CN(CCN1CCC(OC(=O)Nc2ccccc2-c2ccccc2)CC1)C(=O)c1ccc(CN2CCC(C(N)=O)CC2)cc1 has measured z-score of subpopulation abundance not below -0.1. Thanks!
A) NOT MET

Q) Item Cc1ccc(Nc2c(F)cccc2Cl)c(CC(=O)O)c1 with z-score of subpopulation abundance of -0.1 or above?
A) NOT MET

Q) Hi, just wondering whether CCOC(=O)C1=C(C)NC(C)=C(C(=O)OCC)C1c1ccccc1/C=C/C(=O)OC(C)(C)C shows z-score of subpopulation abundance of -0.1 or higher.
A) NOT MET

Q) Test whether the compound CCOC(=O)c1ccc(N)cc1 [Benzocaine hydrochloride] records z-score of subpopulation abundance of -0.1 or higher.
A) NOT MET

Q) Entry O=C(c1ccc(F)cc1)C1CCN(CCn2c(=O)[nH]c3ccccc3c2=O)CC1 : is its z-score of subpopulation abundance no less than -0.1?
A) MET

----------
Please go through the items and note down their z-score of subpopulation abundance.
System: Saccharomyces cerevisiae BY4741 SeMeCo community
Procedure summary: z-score of subpopulation abundance vs DMSO median, subpopulation auxotrophic for HLU; higher = larger share of this subpopulation than in DMSO controls
Protocol conditions: 10 µM; 24 h; SM minimal medium; subpopulation (auxotrophy): HLU
Answers are plain numbers.

Before answering, review these 5 worked examples.
{"Molecule": "O=C(O)CCc1nc(-c2ccccc2)c(-c2ccccc2)o1", "Quantitative result": -0.7}
{"Molecule": "C[n+]1ccccc1/C=N/O [Pralidoxime chloride]", "Quantitative result": -0.43}
{"Molecule": "C#C[C@]1(O)CC[C@H]2[C@@H]3CCc4cc(O)ccc4[C@H]3CC[C@@]21C", "Quantitative result": -0.36}
{"Molecule": "Cc1cc(=O)n(-c2ccccc2)n1C [Antipyrine]", "Quantitative result": -0.53}
{"Molecule": "CN1CCN(C2=Nc3ccccc3Oc3ccc(Cl)cc32)CC1 [Loxapine Succinate]", "Quantitative result": 0.59}

Give z-score of subpopulation abundance for each listed item.
1. Cc1ccc(Cl)c(Nc2ccccc2C(=O)O)c1Cl [Meclofenamate Sodium]
2. CC(Cc1ccc(O)c(O)c1)C(C)Cc1ccc(O)c(O)c1 (stereo not given) [Nordihydroguaiaretic acid (NDGA)]
3. Clc1ccc(CCC(Cn2ccnc2)Sc2c(Cl)cccc2Cl)cc1 (stereo not given) [Butoconazole nitrate]

A)
-0.7
0.33
12.5

----------
System: Saccharomyces cerevisiae BY4741 SeMeCo community
Procedure summary: z-score of subpopulation abundance vs DMSO median, subpopulation auxotrophic for LU; higher = larger share of this subpopulation than in DMSO controls
Protocol conditions: 10 µM; 24 h; SM minimal medium; subpopulation (auxotrophy): LU
Assignment: determine reported z-score of subpopulation abundance for the given compounds.
Numbers only.

{"Compound": "CCOC(=O)C1=C[C@]2(CC)CCCN3CCc4c(n1c1ccccc41)[C@@H]32", "Recorded metric": "z-score of subpopulation abundance", "Quantitative result": 0.81}
{"Compound": "CN(CCOc1ccc(NS(C)(=O)=O)cc1)CCc1ccc(NS(C)(=O)=O)cc1 [Dofetilide]", "Recorded metric": "z-score of subpopulation abundance", "Quantitative result": 0.5}
{"Compound": "CC[C@H]1OC(=O)[C@H](C)[C@@H](O[C@H]2C[C@@](C)(OC)[C@@H](O)[C@H](C)O2)[C@H](C)[C@@H](O[C@@H]2O[C@H](C)C[C@H](N(C)C)[C@H]2O)[C@](C)(O)C[C@@H](C)[C@@H]2N[C@@H](COCCOC)O[C@H]([C@H]2C)[C@]1(C)O", "Recorded metric": "z-score of subpopulation abundance", "Quantitative result": 0.32}
{"Compound": "CC1=C(C(=O)O)N2C(=O)[C@@H](NC(=O)[C@H](N)C3=CCC=CC3)[C@H]2SC1 [Cephradine monohydrate]", "Recorded metric": "z-score of subpopulation abundance", "Quantitative result": 0.27}
{"Compound": "CN(Cc1cnc2nc(N)nc(N)c2n1)c1ccc(C(=O)N[C@@H](CCC(=O)O)C(=O)O)cc1 [Methotrexate]", "Recorded metric": "z-score of subpopulation abundance", "Quantitative result": -1.77}
{"Compound": "C[N+](C)(C)CCO.[Cl-] [Choline Chloride]", "Recorded metric": "z-score of subpopulation abundance", "Quantitative result": 0.54}

For the next question, use this compound.
Q) May I ask what z-score of subpopulation abundance has been recorded for Cc1ncc([N+](=O)[O-])n1CC(O)CCl (configuration not stated) ?
A) -0.8

----------
Test system: Saccharomyces cerevisiae BY4741 SeMeCo community
Procedure summary: z-score of subpopulation abundance vs DMSO median, subpopulation auxotrophic for UM; higher = larger share of this subpopulation than in DMSO controls
Protocol conditions: 10 µM; 24 h; SM minimal medium; subpopulation (auxotrophy): UM
Counter-ions that a name gives are not always drawn.
Output 1.0 for z-score of subpopulation abundance not less than -0.4; output 0.0 otherwise.

{"Compound": "CCCN1CCCC[C@H]1C(=O)Nc1c(C)cccc1C [Ropivacaine HCl]", "Discrete label": 1.0}
{"Compound": "CCN1CCN(C(=O)N[C@@H](C(=O)N[C@@H]2C(=O)N3[C@@H]2SC(C)(C)[C@@H]3C(=O)O)c2ccccc2)C(=O)C1=O [Piperacillin Sodium]", "Discrete label": 0.0}
{"Compound": "Cc1cc(NS(=O)(=O)c2ccc(N)cc2)no1 [Sulfamethoxazole sodium]", "Discrete label": 1.0}

Q) API: above_or_equal(metric=z-score of subpopulation abundance, cutoff=-0.4) for item COc1ccnc(C[S+]([O-])c2nc3cc(-n4cccc4)ccc3[nH]2)c1C (stereo unspecified) [Ilaprazole sodium]
A) 0.0

Q) Is the recorded value of z-score of subpopulation abundance equal to or greater than -0.4 for this compound? COc1ccc(CNc2nc(N3CCC[C@H]3CO)ncc2C(=O)NCc2ncccn2)cc1Cl
A) 1.0

Q) Could you tell me if the measured z-score of subpopulation abundance of CN1C2CCCC1CC(NC(=O)c1nn(C)c3ccccc13)C2 (stereo unspecified) [Granisetron HCl] reaches -0.4 or more?
A) 1.0

Just for reference, the supplement of paper PMC8975748 is where these values come from.
